assay.explanation: In vitro microsome stability assay
Type: in vitro ADME
test.conditions: rat, liver microsomes
measured.endpoint: microsomal CLint (µL/min/mg)

# annotated cases, reported microsomal CLint shown
compound: CC(C)n1nc(C(O)c2cccc(Cl)c2Cl)c2c(N)ncnc21 (stereo not shown)
microsomal CLint (µL/min/mg): 68
--
compound: CC(C)n1nc(Cc2cccc(Cl)c2Cl)c2c(N)ncnc21
microsomal CLint (µL/min/mg): 190

[A] CC(C)(C)n1nc(Cc2cc(Cl)ccc2F)c2c(N)ncnc21
[B] CC(C)n1nc(C(F)c2cccc(Cl)c2Cl)c2c(N)ncnc21 (stereo not shown)
// query Which entry shows the lesser value of microsomal CLint here, A or B ? Which one? Tell me its label.
// result B
(B: 107 µL/min/mg, A: 250 µL/min/mg)

The reported numbers originate from paper PMC3625458.
